- test: In vitro dissociation in blood plasma of rabbit
- Type: in vitro ADME, New Zealand white rabbits
- measurement context: fresh New Zealand white rabbit plasma, 37° C., 10 min
- Procedure: The obtained water soluble taxane derivatives of the following formulae were formulated as 0.2 mg/ml aqueous solutions. […]
property: Sampling time/Dissociation percent (%) 10 min

- CC(=O)O[C@H]1C(=O)[C@@]2(C)[C@H]([C@H](OC(=O)c3ccccc3)[C@]3(O)C[C@H](OC(=O)[C@H](OC(=O)C(F)CCN(C)C)[C@@H](NC(=O)c4ccccc4)c4ccccc4)C(C)=C1C3(C)C)[C@]1(OC(C)=O)CO[C@@H]1C[C@@H]2O.Cl (stereo partly drawn): 100%
- CCN(CC)CC[C@](C)(C(=O)O[C@@H](C(=O)O[C@H]1C[C@@]2(O)[C@@H](OC(=O)c3ccccc3)[C@@H]3[C@]4(OC(C)=O)CO[C@@H]4C[C@H](OC)[C@@]3(C)C(=O)[C@H](OC)C(=C1C)C2(C)C)[C@@H](NC(=O)OC(C)(C)C)c1ccccc1)C(F)(F)F.CS(=O)(=O)O: 92.1%
- CC(=O)OC12COC1CC(O)C1(C)C(=O)C(O)C3=C(C)C(OC(=O)C(OC(=O)C(F)CCN(C)C)C(NC(=O)OC(C)(C)C)c4ccccc4)CC(O)(C(OC(=O)c4ccccc4)C21)C3(C)C.Cl (stereo not drawn): 100%
- CC(=O)O[C@@]12CO[C@@H]1CC[C@@]1(C)[C@@H]3O[C@H](CN(C)C)O[C@@H]3C3=C(C)[C@@H](OC(=O)[C@H](OC(=O)[C@H](F)CC(C)N(C)C)[C@@H](NC(=O)OC(C)(C)C)c4ncccc4F)C[C@@](O)([C@@H](OC(=O)c4ccccc4)[C@@H]12)C3(C)C.Cl (stereo partly drawn): 100%
- CC(=O)O[C@H]1C(=O)[C@@]2(C)[C@H]([C@H](OC(=O)c3ccccc3)[C@]3(O)C[C@H](OC(=O)[C@H](OC(=O)C(F)CCN(C)C)[C@@H](NC(=O)c4ccccc4)c4ccccc4)C(C)=C1C3(C)C)[C@]1(OC(C)=O)CO[C@@H]1C[C@@H]2O.CS(=O)(=O)O (stereo partly drawn): 100%
- CCN(C)C(C)C[C@H](C(=O)O[C@@H](C(=O)O[C@H]1C[C@@]2(O)[C@@H](OC(=O)c3ccccc3)[C@@H]3[C@]4(OC(C)=O)CO[C@@H]4C[C@H](O)[C@@]3(C)C(=O)[C@H](O)C(=C1C)C2(C)C)[C@@H](NC(=O)OC(C)(C)C)c1ccccc1)C(C)(F)F.CS(=O)(=O)O (stereo partly drawn): 89.6%
- CO[C@H]1C(=O)[C@]2(C)[C@@H](OC)C[C@H]3OC[C@@]3(OC(C)=O)[C@H]2[C@H](OC(=O)c2ccccc2)[C@]2(O)C[C@H](OC(=O)[C@H](OC(=O)[C@@H](F)CCN(C)C)[C@@H](NC(=O)OC(C)(C)C)c3ccccc3)C(C)=C1C2(C)C.Cl: 100%
- CO[C@H]1C(=O)[C@]2(C)[C@@H](OC)C[C@H]3OC[C@@]3(OC(C)=O)[C@H]2[C@H](OC(=O)c2ccccc2)[C@]2(O)C[C@H](OC(=O)[C@H](OC(=O)[C@H](F)CCN(C)C)[C@@H](NC(=O)OC(C)(C)C)c3ccccc3)C(C)=C1C2(C)C.CS(=O)(=O)O: 100%
- CC(=O)O[C@@]12CO[C@@H]1C[C@H](O)[C@@]1(C)C(=O)[C@H](O)C3=C(C)[C@@H](OC(=O)[C@H](OC(=O)[C@@H](F)CCN(C)C)[C@@H](NC(=O)OC(C)(C)C)c4ccccc4)C[C@@](O)([C@@H](OC(=O)c4ccccc4)[C@H]21)C3(C)C.Cl: 100%
